- Tested on: edema
- protocol_notes: rat active anaphylaxis model (paw edema after bovine serum albumin challenge)
- Format: in vivo
- test_parameters: 100 mg/kg intraperitoneally, 1 h before challenge; paw volume 90 min post challenge
- Description: In the rat active anaphylaxis model, groups consisting of 15-20 male rats are intraperitoneally sensitized on day zero with 500 ug of bovine serum albumin-absorbed alum admixed with 2×10^10 killed Bordatella pertussis vaccine organisms. […] The paw volume is measured using a mercury plethysmometer prior to drug administration and 90 minutes post antigenic challenge. […]
Items are presented alongside their recorded Active Anaphylaxis % Inhibition.
# output: bare number, implied unit %

{"compound": "O=C(O)C1=C(Nc2cccc(C(F)(F)F)c2)OCC1=O [OH H H C6 H4 CF3 --3]", "Active Anaphylaxis % Inhibition (%)": 45}
{"compound": "CCOC(=O)C1=C(O)COC1=Nc1ccccc1 [K C6 H5 C2 H5]", "Active Anaphylaxis % Inhibition (%)": 49}
{"compound": "O=C([O-])C1=C(Nc2ccccc2)OCC1=O.[Na+] [O^- Na^+ H H C6 H5]", "Active Anaphylaxis % Inhibition (%)": 17}
{"compound": "CC1(C)OC(Nc2ccccc2)=C(C(=O)O)C1=O [OH CH3 CH3 C6 H5]", "Active Anaphylaxis % Inhibition (%)": 44}

Endpoint output: Active Anaphylaxis % Inhibition of CCOC(=O)C1=C(O)COC1=Nc1ccccc1OC [K C6 H4 OCH3 --2 C2 H5] . Value?
58

Likewise for O=C(O)C1=C(N[C@@H]2C[C@H]2c2ccc(Cl)cc2)OCC1=O (relative stereo) ?
6

Likewise for O=C(O)C1=C(Nc2ccc(C(=O)O)cc2)OCC1=O [OH H H C6 H4 CO2 H--4] ?
52

Likewise for O=C(O)C1=C(Nc2ccc(Br)cc2)OCC1=O [OH H H C6 H4 Br--4] ?
27
